Exercise: for every item that follows, state its recorded TGI.
tested on: SNB-19 CNS; test: NCI tumour cell line growth inhibition, 48 h
Give bare numbers, in µM.

For the 3 compounds below, give their TGI values.
1. CC(O)c1cccc(NCc2c3ccccc3c(=O)n3c2oc2ccccc23)c1 (stereo unspecified)
2. O=c1[nH]c(C23CC4CC(CC(C4)C2)C3)cc2c1c(=O)oc1ccccc12
3. CCCCCCCCC[C@@H]1CC(=O)OCC2OC(O[C@H](CCCCCCCCC)CC(=O)OCC3OC(O[C@H](CCCCCCCCC)CC(=O)OCC4OC(O1)C(O)C(O)C4O)C(O)C(O)C3O)C(O)C(O)C2O (stereo partly specified)

[88.3, 17.7, 23.6]
